Tested on: CAL-12T
Test: relative viability (nuclei count vs DMSO), 5 days (fraction); higher = more cells survive
Details: first compound 0.03162 µM
# if measured relative viability < 0.4: class 1  # else: class 0

| molecule | categoryLabel |
| --- | --- |
| Cc1cn(-c2cc(NC(=O)c3ccc(C)c(Nc4nccc(-c5cccnc5)n4)c3)cc(C(F)(F)F)c2)cn1 [Nilotinib] + Cc1nc(NC(=O)N2CCC[C@H]2C(N)=O)sc1-c1ccnc(C(C)(C)C(F)(F)F)c1 [Alpelisib] (partner 2 µM) | class 0 |
| Cc1cn(-c2cc(NC(=O)c3ccc(C)c(Nc4nccc(-c5cccnc5)n4)c3)cc(C(F)(F)F)c2)cn1 [Nilotinib] + CC(=O)c1c(C)c2cnc(Nc3ccc(N4CCNCC4)cn3)nc2n(C2CCCC2)c1=O [Palbociclib] (partner 0.5 µM) | class 1 |
| Cc1cn(-c2cc(NC(=O)c3ccc(C)c(Nc4nccc(-c5cccnc5)n4)c3)cc(C(F)(F)F)c2)cn1 [Nilotinib] + Nc1nc2[nH]cc(CCc3ccc(C(=O)N[C@@H](CCC(=O)O)C(=O)O)cc3)c2c(=O)[nH]1 [Pemetrexed] (partner 0.2 µM) | class 0 |
| Cc1cn(-c2cc(NC(=O)c3ccc(C)c(Nc4nccc(-c5cccnc5)n4)c3)cc(C(F)(F)F)c2)cn1 [Nilotinib] + COc1cccc2cc(-c3nc([C@H]4CC[C@H](C(=O)O)CC4)n4ncnc(N)c34)[nH]c12 [OSI-027] (partner 0.5 µM) | class 0 |
| Cc1cn(-c2cc(NC(=O)c3ccc(C)c(Nc4nccc(-c5cccnc5)n4)c3)cc(C(F)(F)F)c2)cn1 [Nilotinib] + CS(=O)(=O)N1CCN(Cc2cc3nc(-c4cccc5[nH]ncc45)nc(N4CCOCC4)c3s2)CC1 [Pictilisib] (partner 1 µM) | class 1 |

Just for reference, the supplement of paper PMC10307832 is where these values come from.
